# test name: Inhibition of Mycobacterium tuberculosis DNA GyrA/B heterotetramer assessed as inhibition of pBR322 supercoiling after 30 mins by gel electrophoresis
We'd kindly ask you to apply these IC50 classes: lower = under 6 µM, middle = from 6 µM up to 10 µM, upper = 10 µM and over

Incoming: Any idea which band CC(C)NC(=S)Nc1sc(-c2ccccc2)cc1C(N)=O is in?
Outgoing: middle

Incoming: Same question, NC(=O)c1cc(-c2ccccc2)sc1NC(=S)Nc1ccc(Br)cc1 this time
Outgoing: middle

Incoming: Quick one: CC(=O)Nc1sc(-c2ccccc2)cc1C(N)=O
Outgoing: upper

Incoming: Cool, now NC(=O)c1cc(-c2ccccc2)sc1NC(=O)Nc1ccccc1
Outgoing: lower

Incoming: Record: Cc1ccc(NC(=O)Nc2sc(-c3ccccc3)cc2C(N)=O)cc1
Outgoing: upper

Incoming: NC(=O)c1cc(-c2ccccc2)sc1NC(=S)Nc1ccccc1 , same question.
Outgoing: upper

Incoming: NC(=O)c1cc(-c2ccccc2)sc1NC(=O)c1ccc(Oc2ccccc2)cc1 , same question.
Outgoing: middle

Incoming: Now try NC(=O)c1cc(-c2ccccc2)sc1NC(=O)c1cnccn1 .
Outgoing: upper

Incoming: Same thing, different compound: NC(=O)c1cc(-c2ccccc2)sc1NC(=O)Nc1ccc(Br)cc1
Outgoing: upper

Incoming: And then NC(=O)c1cc(-c2ccccc2)sc1NC(=S)NCc1ccccc1 , what is it?
Outgoing: upper

Incoming: And NC(=O)c1cc(-c2ccccc2)sc1NC(=O)c1ccccc1 ?
Outgoing: lower

Incoming: Also NC(=O)c1cc(-c2ccccc2)sc1NC(=O)c1cccs1 , if possible.
Outgoing: lower

Incoming: Cool, now Cc1ccc(NC(=S)Nc2sc(-c3ccccc3)cc2C(N)=O)cc1
Outgoing: lower

Incoming: Repeat for the following compound: NC(=O)c1cc(-c2ccccc2)sc1NC(=O)Nc1ccc([N+](=O)[O-])cc1
Outgoing: upper

Incoming: Would you mind doing NC(=O)c1cc(-c2ccccc2)sc1NC(=O)NCc1ccccc1 as well?
Outgoing: middle

Incoming: Now this one: NC(=O)c1cc(-c2ccccc2)sc1NC(=O)C1CCCC1
Outgoing: upper

Incoming: Another compound to check: CCC(=O)Nc1sc(-c2ccccc2)cc1C(N)=O
Outgoing: lower

Incoming: Next up: NC(=O)c1cc(-c2ccccc2)sc1NC(=O)Nc1ccc(Cl)cc1
Outgoing: lower

Incoming: Record: NC(=O)c1cc(-c2ccccc2)sc1NC(=S)Nc1ccc(Cl)cc1
Outgoing: upper

Incoming: What do we get for NC(=O)c1cc(-c2ccccc2)sc1NC(=O)c1cccc2ccccc12 ?
Outgoing: upper

Incoming: Queued: NC(=O)c1cc(-c2ccccc2)sc1NC(=O)c1cc2ccccc2[nH]1
Outgoing: upper

Incoming: One more compound: NC(=O)c1cc(-c2ccccc2)sc1NC(=S)Nc1ccc(F)cc1
Outgoing: upper

Incoming: What do you have for NC(=O)c1cc(-c2ccccc2)sc1NC(=S)Nc1ccc([N+](=O)[O-])cc1 ?
Outgoing: upper

Incoming: Also NC(=O)c1cc(-c2ccccc2)sc1NC(=O)c1ccc([N+](=O)[O-])cc1 , if possible.
Outgoing: middle

Incoming: CCCC(=O)Nc1sc(-c2ccccc2)cc1C(N)=O ?
Outgoing: lower

Origin of values: ChEMBL document CHEMBL3400074
